Tested on: Amaranthus retoflexus (AMARE)
Experiment: Pre-emergence herbicidal test, glasshouse
Format: in vivo
Settings: 250 g/ha, evaluated after 13 days
Description: Seeds of a variety of test species are sown in standard soil in pots Amaranthus palmeri (AMAPA), Amaranthus retoflexus (AMARE), Setaria faberi (SETFA), Echinochloa crus-galli (ECHCG), Ipomoea hederacea (IPOHE)). […] After 13 days for pre and post-emergence, the test is evaluated for the percentage damage caused to the plant. […]
Assay Endpoint: AMARE percentage damage caused to the plant (five-point scale)

• FC(F)c1cc(Cc2ncc(Cl)cn2)n(-c2ccc(C(F)(F)F)cc2)n1 [Compound 1.016] = 5 (5=81-100%)
• Cc1cnc(Cc2cc(C(F)(F)F)nn2-c2ccc(C(F)(F)F)cc2)nc1 [Compound 1.011] = 5 (5=81-100%)
• Fc1ccc(-n2nc(C(F)(F)Cl)cc2Cc2ncc(Cl)cn2)cc1F [Compound 1.024] = 5 (5=81-100%)
• FC(F)(F)c1cc(Cc2ncc(Cl)cn2)n(-c2ccc(Cl)cc2)n1 [Compound 1.008] = 5 (5=81-100%)

###

Catalogue of ECHCG percentage damage caused to the plant (five-point scale) readings, one per entry.
Tested on: Echinochloa crus-galli (ECHCG)
Assay: Post-emergence herbicidal test, glasshouse
Type: in vivo
Settings: 250 g/ha, evaluated after 13 days
Assay Endpoint: ECHCG percentage damage caused to the plant (five-point scale)

• FC(F)c1cc(Cc2ncc(Cl)cn2)n(-c2ccc(Cl)cc2)n1 = 4 (4=61-80%)
• FC(F)c1cc(Cc2ncc(Cl)cn2)n(-c2ccc(Cl)nc2)n1 = 3 (3=41-60%)
• FC(F)(F)c1ccc(-n2nc(C(F)(F)F)cc2Cc2ncc(Br)cn2)cc1 = 5 (5=81-100%)
• Fc1cc(-n2nc(C(F)(F)F)cc2Cc2ncc(Cl)cn2)cnc1Cl = 5 (5=81-100%)

###

Tested on: Amaranthus palmeri (AMAPA)
Assay: Post-emergence herbicidal test, glasshouse
Assay type: in vivo
Details: 250 g/ha, evaluated after 13 days
Catalogue of AMAPA percentage damage caused to the plant (five-point scale) readings, one per entry.
Assay Endpoint: AMAPA percentage damage caused to the plant (five-point scale)

* FC(F)(F)c1ccc(-n2nc(C(F)(F)F)cc2Cc2ncc(Br)cn2)cc1 | 4 (4=61-80%)
* FC(F)(F)c1cc(Cc2ncc(Cl)cn2)n(-c2ccc(Cl)nc2)n1 | 5 (5=81-100%)
* FC(F)(Cl)c1cc(Cc2ncc(Cl)cn2)n(-c2cnc(Cl)c(Cl)c2)n1 | 5 (5=81-100%)
* Fc1ccc(-n2nc(C(F)F)cc2Cc2ncc(Cl)cn2)cc1 | 5 (5=81-100%)
* N#Cc1ccc(-n2nc(C(F)F)cc2Cc2ncc(Cl)cn2)cc1 | 5 (5=81-100%)
* FC(F)(Cl)c1cc(Cc2ncc(Cl)cn2)n(-c2ccc(Cl)nc2)n1 | 5 (5=81-100%)

Each recorded value in this set is attributed to patent US20250042876A1.
